Source: patent US20230058623A1

mortality at 100 g/ha by entry:
Tested on: green peach aphid (Myzus persicae)
Assay: Myzus persicae spray test
Assay type: in vivo
Conditions: foliar, 120 h, application rate 100 g/ha, after 5 days, Chinese cabbage leaf disks, read-out: activity (mortality)

| compound | u | mortality at 100 g/ha |
| --- | --- | --- |
| C[C@@H]1CN(C(=O)c2ccc(-n3ncnc3[C@H](C)NC(=O)c3cc(C(F)(F)F)cc(C(F)(F)F)c3)nc2)CCO1 | % | 90 |
| C[C@H](NC(=O)c1cc(C(F)(F)F)cc(C(F)(F)F)c1)c1ncnn1-c1ccc(C(=O)N2CCC(O)C2)cn1 (stereo partly shown) | % | 100 |
| Cc1nc([C@H](C)NC(=O)c2cc(C(F)(F)F)cc(C(F)(F)F)c2)n(-c2ccc(C(=O)N3CCOCC3)cn2)n1 | % | 100 |
| C[C@@H]1CN(C(=O)c2ccc(-n3ncnc3[C@H](C)NC(=O)c3cc(Cl)cc(C(F)(F)F)c3)nc2)CCO1 | % | 100 |
| C[C@H](NC(=O)c1cc(C(F)(F)F)cc(C(F)(F)F)c1)c1ncnn1-c1ccc(C(=O)N2CCCC2)cn1 | % | 90 |
| C[C@H](NC(=O)c1cc(C(F)(F)F)cc(C(F)(F)F)c1)c1ncnn1-c1ccc(C(=O)N2CCC2)cn1 | % | 90 |
| C[C@H](NC(=O)c1cc(C(F)(F)F)cc(C(F)(F)F)c1)c1ncnn1-c1ccc(C(=O)N2CCOC(C)(C)C2)cn1 | % | 90 |

----------
Test system: adult brown dog ticks (Rhipicephalus sanguineus)
Assay: Rhipicephalus sanguineus in-vitro contact test, adult brown dog ticks
Assay type: in vivo
Conditions: application rate 5 μg/cm^2 (=500 g/ha), after 48 hours, read-out: activity (efficacy: ticks dead or moribund)
readout.kind: pest or weed control at 5 µg/cm2, 500 g/ha (%)

| molecule | u | reported.measurement |
| --- | --- | --- |
| Cc1nc([C@H](C)NC(=O)c2cc(C(F)(F)F)cc(C(F)(F)F)c2)n(-c2ncc(C(=O)N3CCOCC3)s2)n1 | % | 100 |
| C[C@@H]1CN(C(=O)c2ccc(-n3ncnc3[C@H](C)NC(=O)c3cc(Cl)cc(C(F)(F)F)c3)nc2)CCO1 | % | 100 |
| C[C@H](NC(=O)c1cc(C(F)(F)F)cc(C(F)(F)F)c1)c1ncnn1-c1ccc(C(=O)N2CC3(COC3)C2)cn1 | % | 100 |
| Cc1nc([C@H](C)NC(=O)c2cc(Cl)cc(C(F)(F)F)c2)n(-c2cc(C(=O)N3CCCC3)ccn2)n1 | % | 80 |
| C[C@@H]1CN(C(=O)c2ccc(-n3ncnc3[C@H](C)NC(=O)c3cc(Cl)cc(C(F)(F)F)c3)nc2)C[C@@H](C)O1 | % | 100 |
| C[C@@H]1CN(C(=O)c2ccc(-n3ncnc3[C@H](C)NC(=O)c3cc(Cl)cc(C(F)(F)F)c3)nc2)C[C@H](C)O1 | % | 100 |
| C[C@@H]1CN(C(=O)c2ccc(-n3ncnc3[C@H](C)NC(=O)c3cc(OC(F)(F)F)cc(C4CC4)c3)nc2)C[C@H](C)O1 | % | 100 |
| Cc1nc([C@H](C)NC(=O)c2cc(OC(F)(F)F)cc(C3CC3)c2)n(-c2ccc(C(=O)N3C[C@@H](C)O[C@H](C)C3)cn2)n1 | % | 100 |
| Cc1nc([C@H](C)NC(=O)c2cc(C(F)(F)F)cc(C(F)(F)F)c2)n(-c2ccc(C(=O)N3CCS(=O)(=O)CC3)cn2)n1 | % | 100 |
| Cc1nc([C@H](C)NC(=O)c2cc(Cl)cc(C(F)(F)F)c2)n(-c2ccc(C(=O)N3CC(C)OC(C)C3)cn2)n1 (stereo partly shown) | % | 100 |
| C[C@H](NC(=O)c1cc(Cl)cc(C(F)(F)F)c1)c1ncnn1-c1ccc(C(=O)N2CCOC[C@H]2C)cn1 | % | 100 |
| C[C@H](NC(=O)c1cc(Cl)cc(C(F)(F)F)c1)c1ncnn1-c1ccc(C(=O)N2CCCOCC2)cn1 | % | 100 |
| C[C@@H]1CN(C(=O)c2ccc(-n3nc(C4CC4)nc3[C@H](C)NC(=O)c3cc(C(F)(F)F)cc(C(F)(F)F)c3)nc2)C[C@H](C)O1 | % | 100 |
| CC(NC(=O)c1cc(C(F)(F)F)cc(C(F)(F)F)c1)c1nc(Br)nn1-c1ccc(C(=O)N2CCOCC2)cn1 (racemic) | % | 80 |
| Cc1nc([C@H](C)NC(=O)c2cc(C(F)(F)F)cc(C(F)(F)F)c2)n(-c2ccc(C(=O)N3CCO[C@H](C)C3)cn2)n1 | % | 100 |
| C[C@@H]1CN(C(=O)c2ccc(-n3ncnc3[C@H](C)NC(=O)c3cc(C(F)(F)F)cc(C(F)(F)F)c3)nc2)CCO1 | % | 100 |
| CCc1nc([C@H](C)NC(=O)c2cc(C(F)(F)F)cc(C(F)(F)F)c2)n(-c2ccc(C(=O)N3C[C@@H](C)O[C@@H](C)C3)cn2)n1 | % | 100 |
| Cc1nc([C@H](C)NC(=O)c2cc(Cl)cc(C(F)(F)F)c2)n(-c2ccc(C(=O)N3CC[C@H](F)C3)cn2)n1 | % | 100 |
| C[C@H](NC(=O)c1cc(C(F)(F)F)cc(C(F)(F)F)c1)c1ncnn1-c1ccc(C(=O)N2CC(C)(C)OC(C)(C)C2)cn1 | % | 80 |
| COC1CN(C(=O)c2ccc(-n3nc(C)nc3[C@H](C)NC(=O)c3cc(Cl)cc(C(F)(F)F)c3)nc2)C1 | % | 100 |
| C[C@H](NC(=O)c1cc(Cl)cc(C(F)(F)F)c1)c1ncnn1-c1ccc(C(=O)N2CC3CC(C2)O3)cn1 | % | 100 |
| C[C@H](NC(=O)c1cc(C(F)(F)F)cc(C(F)(F)F)c1)c1ncnn1-c1ccc(C(=O)N2CCS(=O)(=O)CC2)cn1 | % | 100 |
| Cc1nc([C@H](C)NC(=O)c2cc(Cl)cc(C(F)(F)F)c2)n(-c2ccc(C(=O)N3CCCC3)cn2)n1 | % | 100 |
| C[C@@H]1CN(C(=O)c2ccc(-n3ncnc3[C@H](C)NC(=O)c3cc(OC(F)(F)F)cc(C4CC4)c3)nc2)C[C@@H](C)O1 | % | 80 |
| CC1CCN(C(=O)c2ccc(-n3ncnc3[C@H](C)NC(=O)c3cc(Cl)cc(C(F)(F)F)c3)nc2)CC1 | % | 80 |

----------
System: Rhipicephalus (Boophilus) microplus larvae (strain Parkhurst, resistant against synthetic pyrethroids)
Experiment: Rhipicephalus (Boophilus) microplus in-vitro contact test, larval cattle tick
Type: in vivo
Conditions: application rate 1 μg/cm^2 (=100 g/ha), after 48 hours, read-out: activity (efficacy: larvae dead or moribund)
readout.kind: pest or weed control at 1 µg/cm2, 100 g/ha (%)

| smi | reported.measurement |
| --- | --- |
| CCc1nc([C@H](C)NC(=O)c2cc(Br)cc(OC(F)(F)F)c2)n(-c2ccc(C(=O)N3C[C@@H](C)O[C@@H](C)C3)cn2)n1 | 100 |
| Cc1nc([C@H](C)NC(=O)c2cc(OC(F)(F)F)cc(C3CC3)c2)n(-c2ccc(C(=O)N3CCOC[C@@H]3C)cn2)n1 | 100 |
| Cc1nc([C@H](C)NC(=O)c2cc(Cl)cc(C(F)(F)F)c2)n(-c2cc(C(=O)N3CCC3)ccn2)n1 | 90 |
| C[C@@H]1CN(C(=O)c2ccc(-n3ncnc3[C@H](C)NC(=O)c3cc(C(F)(F)F)cc(C(F)(F)F)c3)nc2)C[C@@H](C)O1 | 100 |
| C[C@H](NC(=O)c1cc(C(F)(F)F)cc(C(F)(F)F)c1)c1ncnn1-c1ccc(C(=O)N2CCOC(C)(C)C2)cn1 | 100 |
| Cc1nc([C@H](C)NC(=O)c2cc(C(F)(F)F)cc(C(F)(F)F)c2)n(-c2ccc(C(=O)N3CCOC[C@H]3C)cn2)n1 | 100 |

----------
System: green peach aphid (Myzus persicae)
Assay: Myzus persicae spray test
Format: in vivo
Conditions: foliar, 120 h, application rate 100 g/ha, after 5 days, Chinese cabbage leaf disks, read-out: activity (mortality)
mortality at 100 g/ha by entry:

| compound | u | mortality at 100 g/ha |
| --- | --- | --- |
| C[C@H](NC(=O)c1cc(Cl)cc(C(F)(F)F)c1)c1ncnn1-c1ccc(C(=O)N2CCSCC2)cn1 | % | 100 |
| CC1CN(C(=O)c2ccc(-n3ncnc3[C@H](C)NC(=O)c3cc(C(F)(F)F)cc(C(F)(F)F)c3)nc2)CC(C)O1 (stereo partly shown) | % | 100 |
| C[C@H](NC(=O)c1cc(C(F)(F)F)cc(C(F)(F)F)c1)c1ncnn1-c1ccc(C(=O)N2C[C@H](C)O[C@@H](C)C2)cn1 | % | 100 |
| C[C@H](NC(=O)c1cc(OC(F)(F)F)cc(C2CC2)c1)c1ncnn1-c1ccc(N2CCOCC2)cn1 | % | 90 |
| C[C@H](NC(=O)c1cc(C(F)(F)F)cc(S(C)(=O)=O)c1)c1ncnn1-c1ccc(C(=O)N2CCOCC2)cn1 | % | 90 |
| CON(C)C(=O)c1ccc(-n2nc(C)nc2[C@H](C)NC(=O)c2cc(C(F)(F)F)cc(C(F)(F)F)c2)nc1 | % | 90 |
| C[C@@H]1CN(C(=O)c2ccc(-n3ncnc3[C@H](C)NC(=O)c3cc(OC(F)(F)F)cc(C4CC4)c3)nc2)C[C@H](C)O1 | % | 100 |
| C[C@@H]1CN(C(=O)c2ccc(-n3ncnc3[C@H](C)NC(=O)c3cc(Cl)cc(C(F)(F)F)c3)nc2)C[C@H](C)O1 | % | 100 |
| C[C@H](NC(=O)c1cc(C(F)(F)F)cc(C(F)(F)F)c1)c1ncnn1-c1ncc(C(=O)N2CCCC2)cn1 | % | 100 |
| C[C@H](NC(=O)c1cc(Cl)cc(C(F)(F)F)c1)c1ncnn1-c1ccc(C(=O)N2CCOCC2)cn1 | % | 100 |
| Cc1nc([C@H](C)NC(=O)c2cc(C(F)(F)F)cc(C(F)(F)F)c2)n(-c2cnc(C(=O)N3C[C@@H](C)O[C@@H](C)C3)cn2)n1 | % | 90 |
| C[C@H](NC(=O)c1cc(Cl)cc(C(F)(F)F)c1)c1ncnn1-c1ccc(C(=O)N2CCS(=O)(=O)CC2)cn1 | % | 90 |
| C[C@@H]1CN(C(=O)c2ccc(-n3ncnc3[C@H](C)NC(=O)c3cc(C(F)(F)F)cc(C(F)(F)F)c3)nc2)C[C@@H](C)O1 | % | 90 |
